Attribution: patent US20090203709A1

# procedure.details: Study M04-710 pharmacokinetics, multiple-dose escalation, non-hematologic malignancies
# Format: in vivo, human
# conditions: human, plasma, oral, 0.3 mg/kg; Study Day 1; 0.30 mg/kg; mean ± SD
# Method: In study M04-710, blood samples for pharmacokinetic analysis were collected on Days 1 and 15 at the following times: 0 (pre-dose), 0.5, 1, 2, 3, 4, 6, 8, and 24 h (Day 1 only). In study M05-756, blood samples for pharmacokinetic analysis were collected on Days 1 and 8 at the following times: 0 (pre-dose), 0.5, 1, 2, 3, 4, 6, 8, and 24 h (Day 1 only). […] Plasma and urine concentrations of ABT-869 were determined under the supervision of the Drug Analysis Department at Abbott using LCMS/MS. […]

cpd.smiles: Cc1ccc(F)c(NC(=O)Nc2ccc(-c3cccc4[nH]nc(N)c34)cc2)c1
endpoint.unit: ng/mL
Cmax: 340
